# CC50 per record follows
- protocol details: Cytotoxicity against african green monkey Vero 76 cells by crystal violet staining
- Type: cell-based
- condition details: chlorocebus sabaeus, Vero 76 cells

Sample records with CC50:
[[record]]
molecule = "CN(C)CCCN(/N=N/c1ccccc1)c1cccc(C(F)(F)F)c1"
result_type = "CC50"
reported_value = "20 µM"

[[record]]
molecule = "Nc1nc2c(ncn2COCCO)c(=O)[nH]1 [ACYCLOVIR]"
result_type = "CC50"
reported_value = "> 100 µM"

[[record]]
molecule = "NC(=O)c1ncn([C@@H]2O[C@H](CO)[C@@H](O)[C@H]2O)n1 [RIBAVIRIN]"
result_type = "CC50"
reported_value = "> 100 µM"


We now examine a further molecule.
Noted for C[C@@]1(O)[C@H](O)[C@@H](CO)O[C@H]1n1cnc2c(=O)[nH]c(N)nc21 [2'-B-METHYL-GUANOSINE] : its CC50 reads > 100 µM
